# Tested on: clinical strains of Candida albicans
# procedure.summary: MIC, clinical yeast strains, Candida albicans
# Type: cell-based
# Set-up: unit: μg/ml
# condition.summary: Candida albicans clinical yeast strain 2
Where a SMILES comes first, the peptide text is derived from it. [ ]: non-standard residue; d: D form.
measurement.label: Minimum inhibitory concentration
Lab note: jot down the number only; don't add units.

Below are worked cases with known answers.
- compound: "CC(C)C[C@@H](NC(=O)[C@H](N)CCCNC(=N)N)C(=O)N[C@H](CCCCN)C(=O)N[C@H](Cc1c[nH]c2ccccc12)C(=O)N[C@H](Cc1ccccc1)C(=O)N[C@H](Cc1c[nH]c2ccccc12)C(=O)N[C@H](CC(C)C)C(=O)N[C@H](Cc1ccccc1)C(=O)N[C@H](CCCNC(=N)N)C(=O)N[C@H](CCCCN)C(=O)N[C@H](CCCNC(=N)N)C(=O)O [Chain307D] (H-[dR][dL][dK][dW][dF][dW][dL][dF][dR][dK][dR]-OH)"
  Minimum inhibitory concentration: 16
- compound: "CC(C)C[C@@H](NC(=O)[C@H](N)CCCNC(=N)N)C(=O)N[C@H](CCCCN)C(=O)N[C@H](CCCNC(=N)N)C(=O)N[C@H](Cc1c[nH]c2ccccc12)C(=O)N[C@H](CCCNC(=N)N)C(=O)N[C@H](CC(C)C)C(=O)N[C@H](Cc1ccccc1)C(=O)N[C@H](CCCNC(=N)N)C(=O)N[C@H](CCCCN)C(=O)N[C@H](CCCNC(=N)N)C(=O)O [Chain306D] (H-[dR][dL][dK][dR][dW][dR][dL][dF][dR][dK][dR]-OH)"
  Minimum inhibitory concentration: 8

Note: attention shifts to another entry.
QUERY: Kindly indicate its recorded Minimum inhibitory concentration. Item: CC[C@@H](C)[C@@H](NC(=O)[C@@H](Cc1c[nH]c2ccccc12)NC(=O)[C@H](N)CCCCN)C(=O)N[C@@H](C(=O)N[C@H](Cc1c[nH]c2ccccc12)C(=O)N[C@H](CCCNC(=N)N)C(=O)N[C@H](Cc1c[nH]c2ccccc12)C(=O)N[C@H](CCCNC(=N)N)C(=O)N[C@H](Cc1ccccc1)C(=O)N[C@H](CCCCN)C(=O)N[C@H](CCCNC(=N)N)C(=O)O)C(C)C [Chain201D] (H-[dK][dW][dI][dV][dW][dR][dW][dR][dF][dK][dR]-OH)
RESULT: 8

Where do these numbers come from? They come from patent US11096985B2.
